Several reports have described IC50 for Lysine-specific histone demethylase 1A (Homo sapiens, UniProt O60341); a selection of those results is presented here.

Take a look at these entries with their results.
1. CCn1cc(C(=O)O)c(=O)c2c(N)c(F)c(Nc3ccc([C@@H]4C[C@H]4N)cc3)cc21 (relative stereo) = > 100000 nM
2. Cn1nnc2cc(-c3ncc(N4CCC(N)CC4)nc3-c3ccc(C#N)c(F)c3)ccc21 = < 100 nM
3. CC(=O)O[C@H]1CCN(c2ccc(-n3c(-c4ccc(C#N)c(F)c4)nc4c(N5CCC[C@@H](N)C5)ccnc43)c(F)c2)C1 = 38 nM
4. COc1ccc(-c2c(-c3ccc(C#N)c(F)c3)nc(N3CCC[C@H](N)C3)n(C)c2=O)cc1 = < 100 nM
5. CCn1c(-c2ccc(C)cc2)c(-c2ccc(C#N)cc2)nc(N2CCC(N)CC2)c1=O = < 100 nM

Identify the measured IC50 of "CNC1CCN(c2cnc(-c3cc4ncn(C(C)C)c4cc3F)c(-c3ccc(C#N)c(F)c3)n2)CC1" for Lysine-specific histone demethylase 1A (Homo sapiens, UniProt O60341).
< 100 nM

Identify the measured IC50 of "N#Cc1ccc(-c2cc(NC[C@@H]3CCC[C@@H](N)C3)nn2-c2ccc3c(cnn3-c3ccncc3)c2)cc1F" for Lysine-specific histone demethylase 1A (Homo sapiens, UniProt O60341).
< 500 nM
